Test system: Caenorhabditis elegans N2
protocol.description: mean nematode size ln(EXT) after 48 h, plate-adjusted (DMSO control set to 6) (ln(EXT), control-adjusted); higher = larger nematodes / less growth inhibition
run.parameters: 0.5 µM; exposure time 48 h
Answer each item with its documented mean nematode size ln(EXT) (ln).
Write no unit; give the number alone.

mean nematode size ln(EXT) (ln) reading for CCc1ccc(C(=O)NN(C(=O)c2cc(C)cc(C)c2)C(C)(C)C)cc1 [Tebufenozide] : 6.1

mean nematode size ln(EXT) (ln) reading for CCN(CC)C(=O)c1cc(S(=O)(=O)Cc2ccccc2)c(N2CCC(c3ccccc3)CC2)cc1N(CC)CCN(C)C : 5.74

mean nematode size ln(EXT) (ln) reading for CS(=O)(=O)c1cc(C(F)(F)F)ccc1C(=O)c1cnoc1C1CC1 : 6.11

mean nematode size ln(EXT) (ln) reading for CC(C)(C)c1ccc(O)c(C(C)(C)C)c1 : 5.97

mean nematode size ln(EXT) (ln) reading for CC(Cc1ccc(OCC(=O)O)cc1)NCC(O)c1csc(C(F)(F)F)n1 (stereo not given) : 5.86
